Data origin, for the record: the supplement of paper PMC9732359

Examples of sequences with documented protein stability index follow.
# assay-procedure: protein stability index of a GFP-peptide fusion (yeast GPS) (PSI 1-4); higher = more stable; sorted into four equal gates, so the index is relative within each strain
# experimental-context: doa10∆
measured-parameter: protein stability index

INSERT INTO measurements (sequence_text, measured_parameter, recorded_measurement) VALUES
  ('DVNIVNRRLVYSRILKS [YCG1]', 'protein stability index', 1.36),
  ('AELVQKYIGEGSRMVRE [RPT6]', 'protein stability index', 2.74),
  ('AVVQTVKGLLNTYKRLV [YJL039C/NUP192]', 'protein stability index', 1.8),
  ('QLGPQTPAFNTAILQRQ [ECM29]', 'protein stability index', 1.39),
  ('VIAKLNHNQFECKGCDN [RPB2]', 'protein stability index', 2.93),
  ('NAIFLSSEQDYSTLKEL [YCG1]', 'protein stability index', 2.61),
  ('IRKDPNNLSNQLETLTG [CSE2]', 'protein stability index', 2.87),
  ('FILTIATAFLGYCCVYG [COB]', 'protein stability index', 1.66),
  ('YKAKIKELENNLERLRS [YIL149C/MLP2]', 'protein stability index', 3.22),
  ('ASGFGFGGSQPNSGTAT [YGR119C/NUP57]', 'protein stability index', 3.19),
  ('DFQIDGNIFELLSDTFE [RRI2]', 'protein stability index', 2.04),
  ('DSSAHFKGALTIKILPE [YMR129W/POM152]', 'protein stability index', 2.67),
  ('LPLTEHKSPNLSLMLES [SRB4]', 'protein stability index', 2.43);

###

// protein stability index lookup, one value per entry
# assay-procedure: protein stability index of a GFP-peptide fusion (yeast GPS) (PSI 1-4); higher = more stable; sorted into four equal gates, so the index is relative within each strain
# experimental-context: ubr1∆
measured-parameter: protein stability index

INSERT INTO results (sequence_text, measured_parameter, recorded_measurement) VALUES
  ('VIAKLNHNQFECKGCDN [RPB2]', 'protein stability index', 3.01),
  ('SLVSTQSSSSTRSHEYG [REC8]', 'protein stability index', 3.19),
  ('HDFLFNTIIRDGSKMLK [RPN14]', 'protein stability index', 1.38),
  ('KAIRGMVSHKTARGKAA [RPL16B]', 'protein stability index', 2.62),
  ('KRQFNNSYWLIILLGVL [ITC1]', 'protein stability index', 1.97),
  ('TKRWYKNAGLGFKTPKT [RPS11A]', 'protein stability index', 3.5),
  ('LAVIMDNIGEIDESLFN [YCG1]', 'protein stability index', 3),
  ('IFTDFLPSSNGSSRIIA [RRP42]', 'protein stability index', 2.8),
  ('TSTKDKNSSTSNTEPIP [MED1]', 'protein stability index', 3.16),
  ('SKSESDSQIVTPGELVT [RRP4]', 'protein stability index', 2.83),
  ('VNDTVKIDLASGKITDF [RPS4A]', 'protein stability index', 2.71),
  ('VRSLPKEEQPKQIIVTR [PRP8]', 'protein stability index', 1.98),
  ('RNQRKGAGSIFTSHTRL [RPL2A]', 'protein stability index', 3.09),
  ('SLISTRNDSTVNDSVIS [BRN1]', 'protein stability index', 2.67);
